assay: A-B Permeability (TC7, pH 7.4/7.4); details: human, Caco-2, pH 7.4, Permeability 2nd, A-B, TC7, pH 7.4/7.4; 1.0E−05 M; 2nd determination
PROPERTY MEASURED: Papp A→B at 10 µM (×10⁻⁶ cm/s)

{"SMILES RECORD": "COc1cc2c(c(OC)c1OC)-c1ccc(OC)c(=O)cc1[C@@H](NC(C)=O)CC2", "DISPLAY UNIT": "×10⁻⁶ cm/s", "READOUT NUMBER": 0.02}

====

test: B-A Permeability (TC7, pH 7.4/7.4); details: human, Caco-2, pH 7.4, Permeability Mean, B-A, TC7, pH 7.4/7.4; 1.0E−05 M; mean

{"MOLECULE": "COc1cc2c(c(OC)c1OC)-c1ccc(OC)c(=O)cc1[C@@H](NC(C)=O)CC2 [colchicine]", "DISPLAY UNIT": "×10⁻⁶ cm/s", "Papp B→A at 10 µM": 6.4}
